system: KEAP1 Kelch (kelch-like ECH-associated protein 1, Kelch domain) (human) (UniProt Q14145)
Sequence (Q14145 whole entry, the tested form may be a part): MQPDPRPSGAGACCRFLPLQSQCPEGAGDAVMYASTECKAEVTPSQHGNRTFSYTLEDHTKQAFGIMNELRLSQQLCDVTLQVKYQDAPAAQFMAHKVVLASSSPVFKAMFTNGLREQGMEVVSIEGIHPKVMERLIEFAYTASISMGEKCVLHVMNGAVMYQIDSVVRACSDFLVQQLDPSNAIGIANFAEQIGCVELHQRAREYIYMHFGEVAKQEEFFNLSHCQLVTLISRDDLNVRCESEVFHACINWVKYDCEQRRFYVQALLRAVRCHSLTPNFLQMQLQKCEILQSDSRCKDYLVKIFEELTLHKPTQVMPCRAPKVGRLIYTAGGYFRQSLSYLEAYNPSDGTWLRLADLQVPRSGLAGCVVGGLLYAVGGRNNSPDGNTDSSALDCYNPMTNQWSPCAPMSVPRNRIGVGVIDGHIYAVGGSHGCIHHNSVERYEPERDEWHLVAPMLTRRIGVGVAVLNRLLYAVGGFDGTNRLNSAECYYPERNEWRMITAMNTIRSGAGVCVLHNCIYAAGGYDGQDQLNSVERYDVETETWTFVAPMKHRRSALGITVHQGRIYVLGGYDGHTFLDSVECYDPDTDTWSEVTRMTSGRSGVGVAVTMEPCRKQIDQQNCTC
test-protocol: fluorescence polarisation; competition: unlabelled peptide in serial dilution against the protein domain (master mix at four times the KD) with its FITC-labelled probe peptide; 50 mM KPO4 or NaPO4 pH 7.5; Ki calculated from IC50
Where no end group is shown, it is not given here.
Provide the recorded pIC50 for the entries that follow.
One number for each entry, as −log10 of the molar value.

>  <binder>
Ac-GIIDPSTGERFPVTDY-NH2 [PLEC 4457-4471 peptide with an extra C-terminal Y, wild type]

>  <measured-number>
5.82

$$$$
>  <binder>
GFDAVTGEFTGMPEQW-NH2 [PAK1 88-103 peptide]

>  <measured-number>
4.36

$$$$
>  <binder>
Ac-LIYVDKENGEPGTRVV-NH2 [PTTG1 4-19 peptide]

>  <measured-number>
5.52

$$$$
>  <binder>
YDPVTGEWKSLAKLPE-NH2 [KLHL24 335-350 peptide]

>  <measured-number>
4.10

$$$$
>  <binder>
IDPSTGERFPVTDAVN-NH2 [PLEC 4459-4474 peptide]

>  <measured-number>
5.21

$$$$

Could I get pIC50 for every one of these entries?
1. Ac-YDEETGEFLPIQPAQH-NH2 [NFE2L2 77-91 peptide with an extra N-terminal Y, wild type]
2. Ac-PPLPPPPLPPAPSLPY-NH2 [ATF5 128-143 peptide]

6.51
2.35

Numbers sourced from paper PMC8769072.
